target: CyclinE1/CDK2 (Homo sapiens, UniProt P24864); construct: purchased Eurofins, discovery 14-475; experiment: Fluorescence Polarization (FP) competitive binding assay, Cyclin E1/Cdk2; settings: 10 nM Cyclin E1/Cdk2, 2 nM FAM probe; average of 2-3 independent experiments; read-out: Cyclin E FP IC50;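 note: readings taken after two-hour equilibration at room temperature in HEPES buffer with NaCl, DTT, NP-40 and BSA, IC50 fitted from eight-concentration serial dilution series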
*1 amine or outer side, *2 acyl side, *3 side chain or, on linkers, in order; H or OH if unused. Where a SMILES comes first, the peptide text is derived from it. Bridges are numbered along the chain shown (N, C = ends). [ ]: non-standard residue; d: D form. The star is where a group is joined. X126 = CC(C)C(=O)N1[C@H]2COC[C@@H]1C=C(c1ccc(F)cc1C[C@@H](C(=O)[*:2])N(C)[*:1])C2; X122 = CN([C@@H](Cc1cc(Cl)ccc1C1=CCN(C(=O)C(C)(C)C)CC1)C(=O)[*:2])[*:1]; X98 = CN1CC2(C1)OCc1cc(-c3ccc(Cl)cc3C[C@@H](C(=O)[*:2])N(C)[*:1])ccc12; NMehhhLys(Me) = CN([C@@H](CCCCCCCN(C)[*:3])C(=O)[*:2])[*:1]; NMe(hhhLys) = CN([C@@H](CCCCCCCN[*:3])C(=O)[*:2])[*:1]; cBuCO(3,3-F2-1-CF3) = O=C(C1(C(F)(F)F)CC(F)(F)C1)*; Pro(trans-4-F) = O=C(O)[C@@H]1C[C@@H](F)CN1; Gly(cPr) = N[C@H](C(=O)O)C1CC1
Parameter IC50: see the listing below.
Please respond with the number in µM and leave the unit unwritten.

Consider the reported IC50 for these compounds:
-- ask # get_value(readout='IC50', item= CC(C)C[C@@H]1NC(=O)[C@@H](N(C)C(=O)[C@@H](NC(=O)[C@@H]2C[C@@H](F)CN2C(=O)C2(C(F)(F)F)CC(F)(F)C2)C2CC2)CCCCCCCN(C)C(=O)[C@H](Cc2cc(Cl)ccc2-c2ccc3c(c2)COC32CN(C)C2)N(C)C1=O [Example 355] ({cBuCO(3,3-F2-1-CF3)}-[Pro(trans-4-F)][Gly(cPr)][NMehhhLys(Me)]L[X98]; lactam 3-C) )
-- reply 1.76

-- ask # get_value(readout='IC50', item= CC(C)C[C@@H]1NC(=O)[C@@H](N(C)C(=O)[C@@H](NC(=O)[C@@H]2C[C@@H](F)CN2C(=O)C2(C(F)(F)F)CC(F)(F)C2)C2CC2)CCCCCCCNC(=O)[C@H](Cc2cc(F)ccc2C2=C[C@H]3COC[C@@H](C2)N3C(=O)C(C)C)N(C)C1=O [Example 326] ({cBuCO(3,3-F2-1-CF3)}-[Pro(trans-4-F)][Gly(cPr)][NMe(hhhLys)]L[X126]; lactam 3-C) )
-- reply 0.15

Could you now look at the following compound, please?
-- ask # get_value(readout='IC50', item= CC(C)C[C@@H]1NC(=O)[C@@H](N(C)C(=O)[C@@H](NC(=O)[C@@H]2C[C@@H](F)CN2C(=O)C2(C(F)(F)F)CC(F)(F)C2)C2CC2)CCCCCCCNC(=O)[C@H](Cc2cc(Cl)ccc2C2=CCN(C(=O)C(C)(C)C)CC2)N(C)C1=O [Example 99] ({cBuCO(3,3-F2-1-CF3)}-[Pro(trans-4-F)][Gly(cPr)][NMe(hhhLys)]L[X122]; lactam 3-C) )
-- reply 1.54

* * *

Parameter GI50: see the listing below.
tested on: NCI-H1048 cells; assay: MTT proliferation assay, NCI-H1048; format: cell-based; conditions: 5 days compound exposure, 1:3 serial dilution starting at 10 μM;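 note: Dose-response in 96-well plates over 8 or 10 concentration points, with exposure spanning 3-4 cell doublings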
*1 amine or outer side, *2 acyl side, *3 side chain or, on linkers, in order; H or OH if unused. Where a SMILES comes first, the peptide text is derived from it. Bridges are numbered along the chain shown (N, C = ends). [ ]: non-standard residue; d: D form. The star is where a group is joined. X108 = CN([C@@H](Cc1cc(Cl)ccc1-c1ccc(CN2CCOCC2)cc1)C(=O)[*:2])[*:1]; X49 = CN1CCc2ccc(-c3ccc(Cl)cc3C[C@@H](C(=O)[*:2])N(C)[*:1])cc2C1; NMehhhLys(Me) = CN([C@@H](CCCCCCCN(C)[*:3])C(=O)[*:2])[*:1]; X118 = Cc1cc(-c2ccc(Cl)cc2C[C@@H](C(=O)[*:2])N(C)[*:1])cnn1; cBuCO(3,3-F2-1-CF3) = O=C(C1(C(F)(F)F)CC(F)(F)C1)*; Pro(trans-4-F) = O=C(O)[C@@H]1C[C@@H](F)CN1; Gly(cPr) = N[C@H](C(=O)O)C1CC1
Please respond with the number in nM and leave the unit unwritten.

Consider the reported GI50 for these molecules:
-- ask # get_value(readout='GI50', item= CC(C)C[C@@H]1NC(=O)[C@@H](N(C)C(=O)[C@@H](NC(=O)[C@@H]2C[C@@H](F)CN2C(=O)C2(C(F)(F)F)CC(F)(F)C2)C2CC2)CCCCCCCN(C)C(=O)[C@H](Cc2cc(Cl)ccc2-c2ccc(CN3CCOCC3)cc2)N(C)C1=O [Example 359] ({cBuCO(3,3-F2-1-CF3)}-[Pro(trans-4-F)][Gly(cPr)][NMehhhLys(Me)]L[X108]; lactam 3-C) )
-- reply 10

-- ask # get_value(readout='GI50', item= Cc1cc(-c2ccc(Cl)cc2C[C@H]2C(=O)N(C)CCCCCCC[C@H](N(C)C(=O)[C@@H](NC(=O)[C@@H]3C[C@@H](F)CN3C(=O)C3(C(F)(F)F)CC(F)(F)C3)C3CC3)C(=O)N[C@@H](CC(C)C)C(=O)N2C)cnn1 [Example 296] ({cBuCO(3,3-F2-1-CF3)}-[Pro(trans-4-F)][Gly(cPr)][NMehhhLys(Me)]L[X118]; lactam 3-C) )
-- reply 70

Could you now look at the following molecule, please?
-- ask # get_value(readout='GI50', item= CC(C)C[C@@H]1NC(=O)[C@@H](N(C)C(=O)[C@@H](NC(=O)[C@@H]2C[C@@H](F)CN2C(=O)C2(C(F)(F)F)CC(F)(F)C2)C2CC2)CCCCCCCN(C)C(=O)[C@H](Cc2cc(Cl)ccc2-c2ccc3c(c2)CN(C)CC3)N(C)C1=O [Example 406] ({cBuCO(3,3-F2-1-CF3)}-[Pro(trans-4-F)][Gly(cPr)][NMehhhLys(Me)]L[X49]; lactam 3-C) )
-- reply 20

* * *

Parameter IC50: see the listing below.
biological target: CyclinB1/CDK1 (Homo sapiens, UniProt P14635); construct: purchased Eurofins, discovery 14-450; test: Fluorescence Polarization (FP) competitive binding assay, Cyclin B1/Cdk1; conditions: 10 nM Cyclin B1/Cdk1, 2 nM FAM probe; average of 2-3 independent experiments; read-out: Cyclin B FP IC50;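 note: fluorescence polarization read after equilibration at room temperature, with IC50 taken from serially diluted dose-response curves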
*1 amine or outer side, *2 acyl side, *3 side chain or, on linkers, in order; H or OH if unused. Where a SMILES comes first, the peptide text is derived from it. Bridges are numbered along the chain shown (N, C = ends). [ ]: non-standard residue; d: D form. The star is where a group is joined. X58 = CC(C)C(=O)N1CC=C(c2ccc(Cl)cc2C[C@@H](C(=O)[*:2])N(C)[*:1])CC1; X166 = CN([C@@H](Cc1cc(F)ccc1C1=CC2COCC(C1)N2)C(=O)[*:2])[*:1]; X170 = CN([C@@H](Cc1cc(Cl)ccc1-c1ccc2nonc2c1)C(=O)[*:2])[*:1]; NMehhhLys(Me) = CN([C@@H](CCCCCCCN(C)[*:3])C(=O)[*:2])[*:1]; NMe(hhhLys) = CN([C@@H](CCCCCCCN[*:3])C(=O)[*:2])[*:1]; cBuCO(3,3-F2-1-CF3) = O=C(C1(C(F)(F)F)CC(F)(F)C1)*; Pro(trans-4-F) = O=C(O)[C@@H]1C[C@@H](F)CN1; Gly(cPr) = N[C@H](C(=O)O)C1CC1
Please respond with the number in nM and leave the unit unwritten.

-- ask # get_value(readout='IC50', item= CC(C)C[C@@H]1NC(=O)[C@@H](N(C)C(=O)[C@@H](NC(=O)[C@@H]2C[C@@H](F)CN2C(=O)C2(C(F)(F)F)CC(F)(F)C2)C2CC2)CCCCCCCNC(=O)[C@H](Cc2cc(Cl)ccc2C2=CCN(C(=O)C(C)C)CC2)N(C)C1=O [Example 98] ({cBuCO(3,3-F2-1-CF3)}-[Pro(trans-4-F)][Gly(cPr)][NMe(hhhLys)]L[X58]; lactam 3-C) )
-- reply 20

***
-- ask # get_value(readout='IC50', item= CC(C)C[C@@H]1NC(=O)[C@@H](N(C)C(=O)[C@@H](NC(=O)[C@@H]2C[C@@H](F)CN2C(=O)C2(C(F)(F)F)CC(F)(F)C2)C2CC2)CCCCCCCN(C)C(=O)[C@H](Cc2cc(Cl)ccc2-c2ccc3nonc3c2)N(C)C1=O [Example 170] ({cBuCO(3,3-F2-1-CF3)}-[Pro(trans-4-F)][Gly(cPr)][NMehhhLys(Me)]L[X170]; lactam 3-C) )
-- reply 20

-- ask # get_value(readout='IC50', item= CC(C)C[C@@H]1NC(=O)[C@@H](N(C)C(=O)[C@@H](NC(=O)[C@@H]2C[C@@H](F)CN2C(=O)C2(C(F)(F)F)CC(F)(F)C2)C2CC2)CCCCCCCN(C)C(=O)[C@H](Cc2cc(F)ccc2C2=CC3COCC(C2)N3)N(C)C1=O (stereo partly drawn) [Example 166] ({cBuCO(3,3-F2-1-CF3)}-[Pro(trans-4-F)][Gly(cPr)][NMehhhLys(Me)]L[X166]; lactam 3-C) )
-- reply 20
